Catalogue of inhibition at 1 µM readings, one per entry.
TARGET_ENTITY: serotoninergic 5-HT7 receptor (Homo sapiens, UniProt P34969)
Sequence (P34969 whole entry): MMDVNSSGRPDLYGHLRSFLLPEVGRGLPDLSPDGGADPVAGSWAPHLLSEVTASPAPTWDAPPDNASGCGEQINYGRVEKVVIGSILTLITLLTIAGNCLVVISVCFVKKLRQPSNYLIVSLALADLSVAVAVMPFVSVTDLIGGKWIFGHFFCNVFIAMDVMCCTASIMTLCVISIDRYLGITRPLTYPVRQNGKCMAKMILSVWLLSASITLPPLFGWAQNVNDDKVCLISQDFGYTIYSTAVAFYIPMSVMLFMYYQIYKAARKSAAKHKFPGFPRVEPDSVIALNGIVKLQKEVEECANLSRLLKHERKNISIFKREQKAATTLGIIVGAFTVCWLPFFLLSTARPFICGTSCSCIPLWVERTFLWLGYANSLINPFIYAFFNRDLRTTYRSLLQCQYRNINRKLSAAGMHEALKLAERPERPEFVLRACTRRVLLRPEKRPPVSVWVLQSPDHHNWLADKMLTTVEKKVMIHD
EXPERIMENTAL_PROTOCOL: Binding assay 5-HT7 (h), [3H]LSD, CHO cells
Set-up: expressed in transfected cells; host or cells: CHO cells
RUN_CONDITIONS: read-out: 5-HT7

- COMPOUND_STRUCTURE: "O=c1[nH]c2ccc(S(=O)(=O)NCCN3CCN(c4nsc5ccccc45)CC3)cc2o1"
  OUTPUT_UNIT: "%"
  inhibition at 1 µM: 89
- COMPOUND_STRUCTURE: "O=S(=O)(NCCCCN1CCN(c2nsc3ccccc23)CC1)c1ccc2c(c1)OCO2"
  OUTPUT_UNIT: "%"
  inhibition at 1 µM: 98
- COMPOUND_STRUCTURE: "O=S(=O)(NCCCCN1CCC(c2noc3cc(F)ccc23)CC1)c1cccc(C(F)(F)F)c1"
  OUTPUT_UNIT: "%"
  inhibition at 1 µM: 98
- COMPOUND_STRUCTURE: "O=S(=O)(NCCCCN1CCN(c2noc3ccccc23)CC1)c1ccc2cc(Cl)ccc2c1"
  OUTPUT_UNIT: "%"
  inhibition at 1 µM: 97

====

TARGET_ENTITY: adrenergic α1A receptor (Homo sapiens)
Sequence (P35348 whole entry): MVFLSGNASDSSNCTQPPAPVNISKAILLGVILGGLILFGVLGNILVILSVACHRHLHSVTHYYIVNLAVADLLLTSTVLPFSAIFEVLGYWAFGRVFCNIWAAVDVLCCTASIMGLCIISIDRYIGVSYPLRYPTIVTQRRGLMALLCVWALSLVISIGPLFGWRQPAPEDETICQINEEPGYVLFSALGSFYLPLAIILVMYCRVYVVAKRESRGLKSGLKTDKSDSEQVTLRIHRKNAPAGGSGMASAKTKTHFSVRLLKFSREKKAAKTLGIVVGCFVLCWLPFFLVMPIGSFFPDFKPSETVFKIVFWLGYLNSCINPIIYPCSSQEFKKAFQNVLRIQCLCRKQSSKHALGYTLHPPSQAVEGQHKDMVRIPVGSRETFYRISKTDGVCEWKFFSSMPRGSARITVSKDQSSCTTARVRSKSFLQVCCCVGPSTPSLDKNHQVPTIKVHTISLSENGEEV
EXPERIMENTAL_PROTOCOL: Cellular functional assay, adrenergic α1A receptor (agonism/antagonism)
Type: cell-based
RUN_CONDITIONS: read-out: α1A -antag. [%]
Catalogue of inhibition at 1 µM readings, one per entry.

- COMPOUND: "O=S(=O)(NCCCCN1CCN(c2noc3ccccc23)CC1)c1ccc2ccccc2c1 [Compound 14]"
  OUTPUT_UNIT: "%"
  inhibition at 1 µM: 100
- COMPOUND: "O=S(=O)(NCCCCN1CCN(c2cccc3[nH]ccc23)CC1)c1ccc2ccccc2c1 [Compound 26]"
  OUTPUT_UNIT: "%"
  inhibition at 1 µM: 100
- COMPOUND: "Cc1cccc(S(=O)(=O)NCCCN2CCN(c3nsc4ccccc34)CC2)c1 [Compound 7]"
  OUTPUT_UNIT: "%"
  inhibition at 1 µM: 100
- COMPOUND: "O=S(=O)(NCCCN1CCC(c2noc3cc(F)ccc23)CC1)c1ccc2cn[nH]c2c1 [Compound 352]"
  OUTPUT_UNIT: "%"
  inhibition at 1 µM: 100
- COMPOUND: "O=S(=O)(NCCCCN1CCC(c2noc3cc(F)ccc23)CC1)c1ccc2ccccc2c1 [Compound 18]"
  OUTPUT_UNIT: "%"
  inhibition at 1 µM: 99
- COMPOUND: "O=S(=O)(NCCCCN1CCC(c2noc3cc(F)ccc23)CC1)c1ccc2cc(Cl)ccc2c1 [Compound 97]"
  OUTPUT_UNIT: "%"
  inhibition at 1 µM: 99
- COMPOUND: "O=S(=O)(NCCCCN1CCN(c2nsc3ccccc23)CC1)c1cc2ccccc2s1 [Compound 239]"
  OUTPUT_UNIT: "%"
  inhibition at 1 µM: 100
- COMPOUND: "O=S(=O)(NCCCCN1CCN(c2cccc3[nH]ccc23)CC1)c1ccccc1 [Compound 27]"
  OUTPUT_UNIT: "%"
  inhibition at 1 µM: 100

====

TARGET_ENTITY: serotoninergic 5-HT1A receptor (Homo sapiens, UniProt P08908)
Sequence (P08908 whole entry): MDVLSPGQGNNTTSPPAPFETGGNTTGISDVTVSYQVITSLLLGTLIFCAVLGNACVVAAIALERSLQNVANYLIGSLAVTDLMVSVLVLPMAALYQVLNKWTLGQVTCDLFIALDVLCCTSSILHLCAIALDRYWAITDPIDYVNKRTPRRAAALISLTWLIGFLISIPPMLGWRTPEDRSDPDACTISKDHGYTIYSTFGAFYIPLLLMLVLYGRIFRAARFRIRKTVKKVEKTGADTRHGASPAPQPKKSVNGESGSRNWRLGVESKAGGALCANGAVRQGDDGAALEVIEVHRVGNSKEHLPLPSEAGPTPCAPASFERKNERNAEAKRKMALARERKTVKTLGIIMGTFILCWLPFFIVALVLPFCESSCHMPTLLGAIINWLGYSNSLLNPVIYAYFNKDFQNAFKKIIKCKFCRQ
EXPERIMENTAL_PROTOCOL: Binding assay 5-HT1A (h), [3H]8-OH-DPAT, HEK-293 cells
Set-up: expressed in transfected cells; host or cells: HEK-293 cells
RUN_CONDITIONS: read-out: 5-HT1A

- COMPOUND_STRUCTURE: "O=S(=O)(NCCCCN1CCN(c2cccc3[nH]ccc23)CC1)c1cc2ccc(Cl)cc2s1"
  inhibition at 1 µM (%): 101
- COMPOUND_STRUCTURE: "O=S(=O)(NCCCN1CCN(c2nsc3ccccc23)CC1)c1cc2ccccc2s1"
  inhibition at 1 µM (%): 99
- COMPOUND_STRUCTURE: "O=S(=O)(NCCCCN1CCN(c2cccc3c2OCCO3)CC1)c1cccc(F)c1"
  inhibition at 1 µM (%): 92
- COMPOUND_STRUCTURE: "O=S(=O)(NCCCN1CCN(c2cccc3c2OCCO3)CC1)c1ccc(F)c(F)c1"
  inhibition at 1 µM (%): 96
- COMPOUND_STRUCTURE: "O=S(=O)(NCCCCN1CCN(c2nsc3ccccc23)CC1)c1c[nH]c2ncccc12"
  inhibition at 1 µM (%): 78
- COMPOUND_STRUCTURE: "O=S(=O)(NCCCN1CCN(c2nsc3ccccc23)CC1)c1cc2ccc(Cl)cc2s1"
  inhibition at 1 µM (%): 54
- COMPOUND_STRUCTURE: "O=S(=O)(NCCCN1CCN(c2nsc3ccccc23)CC1)c1cccs1"
  inhibition at 1 µM (%): 98
- COMPOUND_STRUCTURE: "Cc1[nH]c2ccc(Cl)cc2c1C1=CCN(CCCNS(=O)(=O)c2cccc(F)c2)CC1"
  inhibition at 1 µM (%): 56

====

TARGET_ENTITY: adrenergic α2C receptor (Homo sapiens, UniProt P18825)
Sequence (P18825 whole entry): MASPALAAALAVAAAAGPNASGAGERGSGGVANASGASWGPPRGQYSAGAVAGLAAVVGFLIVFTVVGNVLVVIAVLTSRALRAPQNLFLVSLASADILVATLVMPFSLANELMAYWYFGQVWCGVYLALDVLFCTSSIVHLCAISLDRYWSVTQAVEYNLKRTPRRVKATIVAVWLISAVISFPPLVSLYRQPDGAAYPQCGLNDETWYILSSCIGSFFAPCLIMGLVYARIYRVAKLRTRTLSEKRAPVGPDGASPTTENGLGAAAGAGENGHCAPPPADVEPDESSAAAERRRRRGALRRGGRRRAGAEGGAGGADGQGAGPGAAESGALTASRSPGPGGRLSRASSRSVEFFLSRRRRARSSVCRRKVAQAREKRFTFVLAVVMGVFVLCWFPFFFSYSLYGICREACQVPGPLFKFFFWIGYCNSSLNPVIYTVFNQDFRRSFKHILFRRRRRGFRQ
EXPERIMENTAL_PROTOCOL: Cellular functional assay, adrenergic α2C receptor (agonism/antagonism)
Assay type: cell-based
RUN_CONDITIONS: agonist effect, percent of control specific agonist response; compounds tested at 1×10^−6M; read-out: α2C −ag [%]

- COMPOUND_STRUCTURE: "O=S(=O)(NCCCCN1CCN(c2cccc3[nH]ccc23)CC1)c1cccc(Cl)c1"
  activation at 1 µM (%): 13
- COMPOUND_STRUCTURE: "O=S(=O)(NCCCCN1CCN(c2cccc3[nH]ccc23)CC1)c1ccc2ccccc2c1"
  activation at 1 µM (%): 25
- COMPOUND_STRUCTURE: "O=S(=O)(NCCCCN1CCN(c2noc3ccccc23)CC1)c1cc2ccc(Cl)cc2s1"
  activation at 1 µM (%): 1
- COMPOUND_STRUCTURE: "O=S(=O)(NCCCCN1CCN(c2nsc3ccccc23)CC1)c1csc2ccccc12"
  activation at 1 µM (%): 13
- COMPOUND_STRUCTURE: "Cc1c(S(=O)(=O)NCCCN2CCC(c3noc4cc(F)ccc34)CC2)sc2ccc(F)cc12"
  activation at 1 µM (%): -7
- COMPOUND_STRUCTURE: "O=S(=O)(NCCCCN1CCN(c2nsc3ccccc23)CC1)c1ccc2cc(Cl)ccc2c1"
  activation at 1 µM (%): 1
- COMPOUND_STRUCTURE: "O=c1[nH]c2ccc(S(=O)(=O)NCCCCN3CCN(c4noc5ccccc45)CC3)cc2o1"
  activation at 1 µM (%): -7
- COMPOUND_STRUCTURE: "Cc1c(S(=O)(=O)NCCCCN2CCN(c3noc4ccccc34)CC2)sc2ccc(F)cc12"
  activation at 1 µM (%): 9
- COMPOUND_STRUCTURE: "O=S(=O)(NCCCCN1CCC(c2noc3cc(F)ccc23)CC1)c1csc2ccccc12"
  activation at 1 µM (%): -11
- COMPOUND_STRUCTURE: "Cc1cccc(S(=O)(=O)NCCCN2CCC(c3noc4cc(F)ccc34)CC2)c1"
  activation at 1 µM (%): -8
- COMPOUND_STRUCTURE: "O=S(=O)(NCCCCN1CCC(c2noc3cc(F)ccc23)CC1)c1ccc2ccccc2c1"
  activation at 1 µM (%): -10
- COMPOUND_STRUCTURE: "O=S(=O)(NCCCCN1CCN(c2noc3ccccc23)CC1)c1ccc(-c2ccccc2)cc1"
  activation at 1 µM (%): 2
- COMPOUND_STRUCTURE: "O=S(=O)(NCCCCN1CCN(c2noc3ccccc23)CC1)c1ccc2ccccc2c1"
  activation at 1 µM (%): -3

====

TARGET_ENTITY: serotoninergic 5-HT2A receptor (Homo sapiens)
Sequence (P28223 whole entry): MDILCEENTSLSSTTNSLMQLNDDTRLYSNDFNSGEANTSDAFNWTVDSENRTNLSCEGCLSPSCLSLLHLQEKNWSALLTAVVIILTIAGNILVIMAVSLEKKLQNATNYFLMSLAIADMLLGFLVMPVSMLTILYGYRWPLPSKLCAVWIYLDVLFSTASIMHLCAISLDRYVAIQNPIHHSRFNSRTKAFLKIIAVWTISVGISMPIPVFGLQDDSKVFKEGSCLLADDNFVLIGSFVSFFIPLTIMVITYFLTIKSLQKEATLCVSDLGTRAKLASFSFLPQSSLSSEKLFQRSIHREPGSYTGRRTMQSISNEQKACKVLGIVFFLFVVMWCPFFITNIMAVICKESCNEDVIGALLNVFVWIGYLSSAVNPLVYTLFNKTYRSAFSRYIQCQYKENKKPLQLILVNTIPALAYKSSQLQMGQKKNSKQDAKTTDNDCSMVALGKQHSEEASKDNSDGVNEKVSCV
EXPERIMENTAL_PROTOCOL: Cellular functional assay, serotoninergic 5-HT2A receptor (agonism/antagonism)
Assay type: cell-based
RUN_CONDITIONS: read-out: 5-HT2A -antag [%]
Catalogue of inhibition at 1 µM readings, one per entry.
PROPERTY_MEASURED: inhibition at 1 µM (%)

- COMPOUND: "O=S(=O)(NCCCCN1CCC(c2noc3cc(F)ccc23)CC1)c1csc2ccccc12 [Compound 313]"
  OUTPUT_UNIT: "%"
  DATA_VALUE: 98
- COMPOUND: "O=S(=O)(NCCCCN1CCN(c2noc3ccccc23)CC1)c1c[nH]c2ncccc12 [Compound 89]"
  OUTPUT_UNIT: "%"
  DATA_VALUE: 94
- COMPOUND: "O=S(=O)(NCCCCN1CCN(c2noc3ccccc23)CC1)c1ccc2ccccc2c1 [Compound 14]"
  OUTPUT_UNIT: "%"
  DATA_VALUE: 100
- COMPOUND: "O=c1[nH]c2ccc(S(=O)(=O)NCCCCN3CCN(c4noc5ccccc45)CC3)cc2o1 [Compound 16]"
  OUTPUT_UNIT: "%"
  DATA_VALUE: 98
